Cited source: PubChem BioAssay AID2314

- ASSAY REMARKS: Cycloheximide Counterscreen for Small Molecule Inhibitors of Shiga Toxin; also: read at 38.3 µM for the half of the compounds with a filed dose; 0% is about no effect
- REPORTED CONDITIONS: cell reporter, cycloheximide protein synthesis inhibition counterscreen
Hit rate of the full screen: of about 300,000 compounds, about 37,000 (12%) were called active. Rule as the data show it: active = max response mostly above about 13% (no sharp cut-off); inactive = mostly below about 14%. The sample as a whole holds a higher share of actives than the screen did.
Pick from active, inactive when you respond.

Use the examples below as a reference point.
compound=Cc1c(C(=O)Nc2cccc(-c3nnc4n3CCCCC4)c2)oc2ccccc12 cat=inactive
compound=Cc1c(C(=O)N2CCCc3ccccc32)oc2ccccc12 cat=active
compound=Cc1c(C(=O)NC2CCCCC2)oc2ccccc12 cat=active

Request: Check the results log: what was the call for `Cc1cccc(NS(=O)(=O)c2ccc(C(=O)NCC(C)(C)N3CCOCC3)cc2)c1C` ?
Result: inactive

Request: Recorded test call requested for `CCOC(=O)CNc1nc(Cl)nc(Nc2ccc(OC)cc2OC)n1`
Result: inactive

Request: Which outcome was entered for the compound `Cc1ccc(NC(=O)CSc2sc3c(O)cc(=O)[nH]c3c2C#N)cc1C` in this test?
Result: inactive

Request: In this assay, the call recorded for COC(=O)c1ccc(CN2CCCC(C(=O)Nc3cccc(-n4cnnn4)c3)C2)cc1 (stereo not given) was what?
Result: inactive

Request: Please share the test call associated with CC1CCCC(NC(=O)c2cccc(N3CCCC3=O)c2)C1C (stereo not given) .
Result: active

Request: Please share the test call associated with Cc1cc(C)c(C2C3=C(Nc4c2c(C)nn4-c2ccccn2)c2ccccc2C3=O)c(C)c1 (stereo not given) .
Result: inactive

Request: Outcome? `COC(=O)c1ccc(Oc2nc(Nc3ccc(F)cc3)nc(N3CCCC3)n2)cc1`
Result: inactive

----------
# max response values compiled below
- ASSAY REMARKS: Cycloheximide Counterscreen for Small Molecule Inhibitors of Shiga Toxin; also: read at 38.3 µM for the half of the compounds with a filed dose; 0% is about no effect
- REPORTED CONDITIONS: cell reporter, cycloheximide protein synthesis inhibition counterscreen; stronger effect = higher value
Hit rate of the full screen: of about 300,000 compounds, about 37,000 (12%) were called active. Many of the other results were omitted from the sample, so actives are more common in it than they were.
The response must be a number in % with no trailing unit.

Known results for compounds:
compound=COc1ccc(-c2[nH]ncc2CN(C)Cc2c(C)n[nH]c2C)c(OC)c1 observed_result=-6.81
compound=CCNS(=O)(=O)c1ccc(NC(=O)c2cncc(Br)c2)cc1 observed_result=-2.2
compound=C=CCCC(=O)Nc1nc(C)c(-c2csc(Nc3ccc(Cl)cc3)n2)s1 observed_result=-1.48
compound=CN(CCC1CCOCC1)Cc1cn[nH]c1-c1ccc(-c2ccccc2)cc1 observed_result=19
compound="COc1cc(/C=C(\\C#N)c2nc3c(s2)CC(C)CC3)ccc1O (stereo unspecified)" observed_result=26.5

Request: Which max response value is on record for `Cc1ccc2c(c1)c1ncn(Cc3ccc(F)cc3)c(=O)c1n2C` ?
Result: -2.24

Request: Could you share which max response value was measured for O=C(CC1C(=O)NCCN1Cc1ccc(-c2ccccc2)cc1)NCC1CCOCC1 (stereo unspecified) ?
Result: -0.46

Request: Suppose we examine the compound CN(C(=O)CSc1nnc(-c2c[nH]c3ccccc23)o1)C1CCS(=O)(=O)C1 (stereo unspecified) ; what max response value has been reported?
Result: 1.22

Request: Look at this compound and give its reported max response. `Cc1ccc(-n2c(SCC(=O)N/N=C/C=C/c3ccccc3[N+](=O)[O-])nc3ccccc3c2=O)cc1`
Result: -7.24

Request: Name the recorded max response for COc1ccc(N2C(=O)C(CC(=O)Nc3ccc(F)cc3)N(CCc3cccs3)C2=O)cc1 (stereo unspecified) .
Result: 8.62

Request: Requested read-out: max response. Entry: COc1cccc(CC2(CO)CCCN(Cc3nc(-c4cccs4)oc3C)C2)c1 (stereo unspecified)
Result: 1.79

Request: Give the measured max response of `CCCCC(=O)Nc1c2c(nn1-c1ccc([N+](=O)[O-])cc1)CS(=O)(=O)C2` .
Result: -4.82

Request: Field request: max response | item: CC(=O)c1cccc(NC(=O)C2CCCN(S(=O)(=O)c3cccc4nonc34)C2)c1 (stereo unspecified)
Result: -1.65

Request: Param item = `CCn1c(SCC(=O)N/N=C/C=C/c2ccccc2[N+](=O)[O-])nnc1-c1ccccc1` ; retrieve measured max response.
Result: 8.3

Request: max response lookup needed for OC(COc1ccc(Br)cc1)CN1CCCC1 (stereo unspecified) , thanks.
Result: -1.85

Request: Which value of max response has been reported for `Cn1ncc2c(N3CCCCC3)nc(NCCCO)nc21` in the records?
Result: -5.17

Request: Quick one: max response of `CCOc1ccc(/C=N\NC(=O)c2c(C)nc3cc(C)ccn23)cc1` ?
Result: 0.972

Request: If you can, please state the reported max response value of `CN(C)CCCn1c(SCc2ccc(Cl)cc2)nnc1-c1ccncc1` .
Result: -2.48

Request: Please report the recorded max response for `CC(=O)c1c(C)[nH]c(C(=O)OCC(=O)Nc2cc(S(=O)(=O)N3CCCCC3)ccc2C)c1C` .
Result: -1.55

Request: Item `CCCCCOc1ccc(/C=C/C(=O)NCCc2nc3ccccc3[nH]2)cc1OC` has what recorded max response?
Result: 1.2

Request: What value of max response has been recorded for this entry: `O=C(c1ccc(OC2CCN(C(=O)c3cccnc3)CC2)cc1)N1CCCCCC1`
Result: -1.68
